assay: Dog pharmacokinetic study, single oral HM04 fumarate salt 3, 10, 30 mg/kg (Example 10); assay type: in vivo, male Beagle dogs; settings: male, Beagle, plasma, 30 mg/kg oral, n=4
propertyMeasured: Cmax (ng/mL)

# molecule, propertyMeasured, unitString, result
data = [
    ("CN1CCC(N(C)C(=O)N[C@H](c2ccc(-c3cnccn3)c(Cl)c2Cl)C(F)(F)F)CC1.O=C(O)/C=C/C(=O)O [HM04 fumarate salt]", "Cmax", "ng/mL", 5720),
]

###

test: Dog pharmacokinetic study, single oral HM04 fumarate salt 3, 10, 30 mg/kg (Example 10); type: in vivo, male Beagle dogs; details: male, Beagle, plasma, 30 mg/kg oral, 1 hour, n=4

# molecule, unitString, concentration at 1 h
data = [
    ("CN1CCC(N(C)C(=O)N[C@H](c2ccc(-c3cnccn3)c(Cl)c2Cl)C(F)(F)F)CC1.O=C(O)/C=C/C(=O)O [HM04 fumarate salt]", "µg/mL", 5.72),
]

###

assay: Dog pharmacokinetic study, single oral HM04 fumarate salt 3, 10, 30 mg/kg (Example 10); assay type: in vivo, male Beagle dogs; conditions: male, Beagle, plasma, 10 mg/kg oral, 0.25 hours, n=4

# compound, unitString, concentration at 0.25 h
measured = [
    ("CN1CCC(N(C)C(=O)N[C@H](c2ccc(-c3cnccn3)c(Cl)c2Cl)C(F)(F)F)CC1.O=C(O)/C=C/C(=O)O [HM04 fumarate salt]", "ng/mL", 307),
]

###

assay: Rat pharmacokinetic study, single oral HM04 fumarate salt 3, 10, 30 mg/kg (Example 10); type: in vivo, male Sprague Dawley rats; conditions: male, Sprague Dawley, plasma, 3 mg/kg oral, 1 hour, n=4

# compound, concentration at 1 h / ng/mL
rows = [
    ("CN1CCC(N(C)C(=O)N[C@H](c2ccc(-c3cnccn3)c(Cl)c2Cl)C(F)(F)F)CC1.O=C(O)/C=C/C(=O)O [HM04 fumarate salt]", 82.4),
]

###

experiment: Rat pharmacokinetic study, single oral HM04 fumarate salt 3, 10, 30 mg/kg (Example 10); assay type: in vivo, male Sprague Dawley rats; details: male, Sprague Dawley, plasma, 10 mg/kg oral, N = 3

# molecule, unitString, half-life
rows = [
    ("CN1CCC(N(C)C(=O)N[C@H](c2ccc(-c3cnccn3)c(Cl)c2Cl)C(F)(F)F)CC1.O=C(O)/C=C/C(=O)O [HM04 fumarate salt]", "h", 4.88),
]

###

Test: Rat pharmacokinetic study, single oral HM04 fumarate salt 3, 10, 30 mg/kg (Example 10)
Assay type: in vivo, male Sprague Dawley rats
Conditions: male, Sprague Dawley, plasma, 30 mg/kg oral, 1 hour, n=4
Description: The pharmacokinetics of HM04 in plasma after single oral administration of HM04 fumarate salt to 6-week old male Sprague Dawley rats and male Beagle dogs (1-5 years of age) was investigated. Test formulations of 0.6 mg/mL, 2 mg/mL, and 6 mg/mL HM04 fumarate salt (based on weight of the free base) were prepared in 5% glucose solution. […] Plasma HM04 concentrations were measured by LC-MS/MS following protein precipitation in the 96-well plate format. […]

# compound, concentration at 1 h
measured = [
    ("CN1CCC(N(C)C(=O)N[C@H](c2ccc(-c3cnccn3)c(Cl)c2Cl)C(F)(F)F)CC1.O=C(O)/C=C/C(=O)O [HM04 fumarate salt]", "2290 ng/mL"),
]

###

assay: Dog pharmacokinetic study, single oral HM04 fumarate salt 3, 10, 30 mg/kg (Example 10); type: in vivo, male Beagle dogs; details: male, Beagle, plasma, 3 mg/kg oral, 0 hours (pre-dose), n=4

# compound, concentration at 0 h [ng/mL]
rows = [
    ("CN1CCC(N(C)C(=O)N[C@H](c2ccc(-c3cnccn3)c(Cl)c2Cl)C(F)(F)F)CC1.O=C(O)/C=C/C(=O)O [HM04 fumarate salt]", 5.34),
]

###

assay: Dog pharmacokinetic study, single oral HM04 fumarate salt 3, 10, 30 mg/kg (Example 10); assay type: in vivo, male Beagle dogs; details: male, Beagle, plasma, 3 mg/kg oral, 0.25 hours, n=4
propertyMeasured: concentration at 0.25 h (ng/mL)

# molecule, result
measured = [
    ("CN1CCC(N(C)C(=O)N[C@H](c2ccc(-c3cnccn3)c(Cl)c2Cl)C(F)(F)F)CC1.O=C(O)/C=C/C(=O)O [HM04 fumarate salt]", 66),
]

###

assay: Rat pharmacokinetic study, single oral HM04 fumarate salt 3, 10, 30 mg/kg (Example 10); assay type: in vivo, male Sprague Dawley rats; conditions: male, Sprague Dawley, plasma, 3 mg/kg oral, N = 2
propertyMeasured: half-life (h)

# compound, propertyMeasured, unitString, result
measured = [
    ("CN1CCC(N(C)C(=O)N[C@H](c2ccc(-c3cnccn3)c(Cl)c2Cl)C(F)(F)F)CC1.O=C(O)/C=C/C(=O)O [HM04 fumarate salt]", "half-life", "h", 2.82),
]

###

assay: Dog pharmacokinetic study, single oral HM04 fumarate salt 3, 10, 30 mg/kg (Example 10); format: in vivo, male Beagle dogs; conditions: male, Beagle, plasma, 3 mg/kg oral, n=4

# compound, Cmax, ng/mL
rows = [
    ("CN1CCC(N(C)C(=O)N[C@H](c2ccc(-c3cnccn3)c(Cl)c2Cl)C(F)(F)F)CC1.O=C(O)/C=C/C(=O)O [HM04 fumarate salt]", 425),
]

###

experiment: Dog pharmacokinetic study, single oral HM04 fumarate salt 3, 10, 30 mg/kg (Example 10); type: in vivo, male Beagle dogs; conditions: male, Beagle, plasma, 10 mg/kg oral, 0.50 hours, n=4

# molecule, unitString, concentration at 0.5 h
data = [
    ("CN1CCC(N(C)C(=O)N[C@H](c2ccc(-c3cnccn3)c(Cl)c2Cl)C(F)(F)F)CC1.O=C(O)/C=C/C(=O)O [HM04 fumarate salt]", "ng/mL", 862),
]

###

Assay: Rat pharmacokinetic study, single oral HM04 fumarate salt 3, 10, 30 mg/kg (Example 10)
Format: in vivo, male Sprague Dawley rats
Conditions: male, Sprague Dawley, plasma, 3 mg/kg oral vs 3 mg/kg intravenous mean AUC
Procedure: The pharmacokinetics of HM04 in plasma after single oral administration of HM04 fumarate salt to 6-week old male Sprague Dawley rats and male Beagle dogs (1-5 years of age) was investigated. Test formulations of 0.6 mg/mL, 2 mg/mL, and 6 mg/mL HM04 fumarate salt (based on weight of the free base) were prepared in 5% glucose solution. […] Plasma HM04 concentrations were measured by LC-MS/MS following protein precipitation in the 96-well plate format. […]
propertyMeasured: bioavailability (%)

# compound, propertyMeasured, result
measured = [
    ("CN1CCC(N(C)C(=O)N[C@H](c2ccc(-c3cnccn3)c(Cl)c2Cl)C(F)(F)F)CC1.O=C(O)/C=C/C(=O)O [HM04 fumarate salt]", "bioavailability", 43.3),
]

###

experiment: Rat pharmacokinetic study, single oral HM04 fumarate salt 3, 10, 30 mg/kg (Example 10); type: in vivo, male Sprague Dawley rats; settings: male, Sprague Dawley, plasma, oral doses of 3 and 10 mg/kg
propertyMeasured: bioavailability

# smilesEntry, result
data = [
    ("CN1CCC(N(C)C(=O)N[C@H](c2ccc(-c3cnccn3)c(Cl)c2Cl)C(F)(F)F)CC1", "40 to 50%"),
]

###

test: Dog pharmacokinetic study, single oral HM04 fumarate salt 3, 10, 30 mg/kg (Example 10); type: in vivo, male Beagle dogs; conditions: male, Beagle, plasma, iv, 3 mg/kg, Dog 1, 3 mg/kg intravenous, read-out: individual IV AUC∞
propertyMeasured: AUC(0-inf)

# molecule, propertyMeasured, result
rows = [
    ("CN1CCC(N(C)C(=O)N[C@H](c2ccc(-c3cnccn3)c(Cl)c2Cl)C(F)(F)F)CC1.O=C(O)/C=C/C(=O)O [HM04 fumarate salt]", "AUC(0-inf)", "6190 ng·h/mL"),
]

###

assay: Rat pharmacokinetic study, single oral HM04 fumarate salt 3, 10, 30 mg/kg (Example 10); assay type: in vivo, male Sprague Dawley rats; settings: male, Sprague Dawley, plasma, 10 mg/kg oral, N = 3

# compound, AUC(0-t) [µg·h/mL]
data = [
    ("CN1CCC(N(C)C(=O)N[C@H](c2ccc(-c3cnccn3)c(Cl)c2Cl)C(F)(F)F)CC1.O=C(O)/C=C/C(=O)O [HM04 fumarate salt]", 3.36),
]

###

test: Rat pharmacokinetic study, single oral HM04 fumarate salt 3, 10, 30 mg/kg (Example 10); assay type: in vivo, male Sprague Dawley rats; conditions: male, Sprague Dawley, plasma, 3 mg/kg oral, n=4

# compound, Tmax, h
records = [
    ("CN1CCC(N(C)C(=O)N[C@H](c2ccc(-c3cnccn3)c(Cl)c2Cl)C(F)(F)F)CC1.O=C(O)/C=C/C(=O)O [HM04 fumarate salt]", 3),
]

###

assay: Dog pharmacokinetic study, single oral HM04 fumarate salt 3, 10, 30 mg/kg (Example 10); assay type: in vivo, male Beagle dogs; conditions: male, Beagle, plasma, iv, 10 mg/kg, Dog 4, 10 mg/kg intravenous, read-out: individual IV AUC∞

# compound, unitString, AUC(0-inf)
rows = [
    ("CN1CCC(N(C)C(=O)N[C@H](c2ccc(-c3cnccn3)c(Cl)c2Cl)C(F)(F)F)CC1.O=C(O)/C=C/C(=O)O [HM04 fumarate salt]", "ng·h/mL", 14900),
]

Data credit: patent US11299472B2
